- target.system: Ribosomal protein S6 kinase beta-1 (Homo sapiens);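 note: reported value is the mean inhibition of p70S6K1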
- measurement.parameters: at 0.1 µM
reported.endpoint: inhibition
Reply with the number and its unit after it.

Considering `COc1cc2ncn(-c3cc(OCc4cccs4)c(C(N)=O)s3)c2cc1OC` , its inhibition with Ribosomal protein S6 kinase beta-1 (Homo sapiens) was recorded as 1.35%

Considering `COc1ccc(C2=C(N3CCc4ccccc43)C(=O)NC2=O)cc1` , its inhibition with Ribosomal protein S6 kinase beta-1 (Homo sapiens) was recorded as 1.91%

Considering `CN(C)CCCNc1nccc(-c2c(-c3ccc(F)cc3)nn3cc(C(F)(F)F)ccc23)n1` , its inhibition with Ribosomal protein S6 kinase beta-1 (Homo sapiens) was recorded as 2.93%

Considering `Cc1nnc(-c2ccc(C)c(-c3ccc(C(=O)NCc4ccc(Cl)cc4)cc3)c2)o1` , its inhibition with Ribosomal protein S6 kinase beta-1 (Homo sapiens) was recorded as 1.21%

Considering `NC(=O)Cc1ccccc1Oc1nccc(-c2c(-c3ccc(F)cc3)ncn2C2CCNCC2)n1` , its inhibition with Ribosomal protein S6 kinase beta-1 (Homo sapiens) was recorded as 0.73%

Considering Nc1nccc(-c2c(-c3ccc(F)cc3)ncn2C2CCC(O)CC2)n1 (stereo unspecified) , its inhibition with Ribosomal protein S6 kinase beta-1 (Homo sapiens) was recorded as -1.59%

Considering `c1ccc(-c2n[nH]cc2-c2ccnc(-c3ccc(OCCN4CCOCC4)cc3)c2)nc1` , its inhibition with Ribosomal protein S6 kinase beta-1 (Homo sapiens) was recorded as 2.04%

Considering `COc1cccc(/C=N/Nc2ncnc3c2cnn3-c2cccc(OC)c2)c1` , its inhibition with Ribosomal protein S6 kinase beta-1 (Homo sapiens) was recorded as 1.49%

Considering `CCS(=O)(=O)c1ccc(OC)c(Nc2ncc(-c3ccccc3Cl)o2)c1` , its inhibition with Ribosomal protein S6 kinase beta-1 (Homo sapiens) was recorded as 0.04%

Considering `O=C(Nc1n[nH]c2nc(-c3ccc(O)cc3)c(Br)cc12)C1CC1` , its inhibition with Ribosomal protein S6 kinase beta-1 (Homo sapiens) was recorded as 2.07%

Considering `NS(=O)(=O)c1ccc(N/N=C2\C(=O)Nc3ccc(-c4cnco4)cc32)cc1` , its inhibition with Ribosomal protein S6 kinase beta-1 (Homo sapiens) was recorded as 0.79%

Considering `FC(F)(F)c1cccc(Nc2nccc(-c3cnn4nc(-c5ccccc5)ccc34)n2)c1` , its inhibition with Ribosomal protein S6 kinase beta-1 (Homo sapiens) was recorded as 1.59%

Considering `COc1ccc(-c2ccc3c(NC(=O)C4CC4)n[nH]c3n2)cc1` , its inhibition with Ribosomal protein S6 kinase beta-1 (Homo sapiens) was recorded as 0.22%

Considering `O=C1Nc2ccc(I)cc2C1=Cc1cc(Br)c(O)c(Br)c1` , its inhibition with Ribosomal protein S6 kinase beta-1 (Homo sapiens) was recorded as 2.06%

Considering `CCC(=O)Nc1ccc(C)c(-c2ccc(C(=O)NCC3CC3)cc2)c1` , its inhibition with Ribosomal protein S6 kinase beta-1 (Homo sapiens) was recorded as 0.91%

Considering `C/C(Nc1ccc(S(N)(=O)=O)cc1)=C1/C(=O)Nc2ccccc21` , its inhibition with Ribosomal protein S6 kinase beta-1 (Homo sapiens) was recorded as -1.96%

Considering `COc1cc(C)c(N(C)C(=O)CN(C)C)cc1Nc1nc(Nc2cccc(F)c2C(N)=O)c2cc[nH]c2n1` , its inhibition with Ribosomal protein S6 kinase beta-1 (Homo sapiens) was recorded as 2.18%

Considering `O=C(Nc1n[nH]c2cc(-c3cc(F)ccc3F)ccc12)C1CC1` , its inhibition with Ribosomal protein S6 kinase beta-1 (Homo sapiens) was recorded as 1.01%

Considering `COc1cc(N2CCN(C(C)C)CC2)ccc1Nc1nc(Nc2ccc(F)cc2C(=O)NC[C@@H](O)CO)c2cc[nH]c2n1` , its inhibition with Ribosomal protein S6 kinase beta-1 (Homo sapiens) was recorded as 1.29%

Considering `Clc1ccc(CNc2nccc(-c3cnn4ncccc34)n2)cc1` , its inhibition with Ribosomal protein S6 kinase beta-1 (Homo sapiens) was recorded as 1.82%

Considering `CN(C)c1ccc2c(c1)/C(=C/Nc1ccc(S(N)(=O)=O)cc1)C(=O)N2` , its inhibition with Ribosomal protein S6 kinase beta-1 (Homo sapiens) was recorded as 0.19%

Considering `CS(=O)(=O)CCNCc1ccc(-c2ccc3ncnc(Nc4ccc(OCc5ccccc5)c(Br)c4)c3c2)o1` , its inhibition with Ribosomal protein S6 kinase beta-1 (Homo sapiens) was recorded as 0.95%

Considering `N#Cc1ccc(Oc2nccc(-c3c(-c4ccc(F)cc4)ncn3C3CCNCC3)n2)cc1` , its inhibition with Ribosomal protein S6 kinase beta-1 (Homo sapiens) was recorded as 1.84%

Considering `CN(c1ccc(NC(=O)Nc2c(Cl)cccc2Cl)cc1)c1ccnc(Nc2cccc(CS(C)(=O)=O)c2)n1` , its inhibition with Ribosomal protein S6 kinase beta-1 (Homo sapiens) was recorded as -1.3%

Considering `O=C(Nc1n[nH]c2cc(-c3ccccc3)ccc12)C1CC1` , its inhibition with Ribosomal protein S6 kinase beta-1 (Homo sapiens) was recorded as 0.9%

Considering `Cc1ccc(C(=O)NC(C)C)cc1-c1ccc(C(=O)NCC2CC2)cc1` , its inhibition with Ribosomal protein S6 kinase beta-1 (Homo sapiens) was recorded as -2.1%

Considering `COc1ccc2ncn(-c3cc(O[C@H](C)c4ccccc4Cl)c(C(N)=O)s3)c2c1` , its inhibition with Ribosomal protein S6 kinase beta-1 (Homo sapiens) was recorded as 0.38%

Considering `CN1CCN(CCCNc2nc3ccc(Oc4ccc(NC(=O)Nc5cc(C(F)(F)F)ccc5F)cc4)cc3[nH]2)CC1` , its inhibition with Ribosomal protein S6 kinase beta-1 (Homo sapiens) was recorded as 1.14%

Considering `Fc1ccc(-c2ncn(C3CCNCC3)c2-c2ccnc(Oc3ccc(F)c(F)c3)n2)cc1` , its inhibition with Ribosomal protein S6 kinase beta-1 (Homo sapiens) was recorded as 0.73%

Considering `C[C@@H](Oc1cc(-n2cnc3ccc(OCC4CCN(C)CC4)cc32)sc1C(N)=O)c1ccccc1Cl` , its inhibition with Ribosomal protein S6 kinase beta-1 (Homo sapiens) was recorded as 2.88%

Considering `NC(=O)c1cc(-c2ccc(F)cc2)cc(-c2ccncc2)c1N` , its inhibition with Ribosomal protein S6 kinase beta-1 (Homo sapiens) was recorded as 1.5%

###

- target.system: Sphingosine kinase 2 (Homo sapiens)
- measurement.parameters: at 1 µM
- Description: GSK_PKIS: SPHK2 mean inhibition at 1 uM [Nanosyn]
reported.endpoint: inhibition
Reply with the number and its unit after it.

Item: `NC(=O)c1cc(-c2ccc(F)cc2)cc(-c2ccncc2)c1N` | inhibition: -1.1%

Item: `NC(=O)c1cc(-c2ccncc2)cc(-c2ccccc2)c1N` | inhibition: -1.58%

Item: COc1ccc2cc(-c3c(-c4ccncc4)nc(-c4ccc([S+](C)[O-])cc4C)n3C)ccc2c1 (stereo not given) | inhibition: 0.76%

Item: `O=C(Nc1n[nH]c2cc(-c3ccccc3)ccc12)C1CC1` | inhibition: -0.92%

Item: `COc1ccc2ncn(-c3cc(O[C@H](C)c4ccccc4Cl)c(C(N)=O)s3)c2c1` | inhibition: 0.79%

Item: `Cc1ccc(C(=O)NC(C)C)cc1-c1ccc(C(=O)NCC2CC2)cc1` | inhibition: 1.77%

Item: `Fc1ccc(-c2c(-c3ccncc3)nc3n2CCS3)cc1` | inhibition: 0.64%

Item: `NC(=O)Cc1ccccc1Oc1nccc(-c2c(-c3ccc(F)cc3)ncn2C2CCNCC2)n1` | inhibition: 0.42%

Item: `C[C@@H](Oc1cc(-n2cnc3ccc(OCC4CCN(C)CC4)cc32)sc1C(N)=O)c1ccccc1Cl` | inhibition: -0.12%

Item: `CS(=O)(=O)CCNCc1ccc(-c2ccc3ncnc(Nc4ccc(OCc5ccccc5)c(Br)c4)c3c2)o1` | inhibition: -1.58%

###

- target.system: Calcium/calmodulin-dependent protein kinase type II subunit alpha (Homo sapiens);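 note: reported values are averages (mean inhibition of CAMK2A)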
- measurement.parameters: at 0.1 µM
reported.endpoint: inhibition (%)
Please give a number only; it is taken to be in %.

Item: `O=C1Nc2ccc(I)cc2C1=Cc1cc(Br)c(O)c(Br)c1` | inhibition: 4.96

Item: `CN1CCN(CCCNc2nc3ccc(Oc4ccc(NC(=O)Nc5cc(C(F)(F)F)ccc5F)cc4)cc3[nH]2)CC1` | inhibition: 3.27

Item: `Cc1ccc(C(=O)NC(C)C)cc1-c1ccc(C(=O)NCC2CC2)cc1` | inhibition: -4.62

###

For each record, write down the corresponding inhibition.
- Test system: Tyrosine-protein kinase ABL1 (Homo sapiens), P00519 [Q252H]
- measurement.parameters: at 0.1 µM
Please give a number only; it is taken to be in %.

Item: COc1ccc2cc(-c3c(-c4ccncc4)nc(-c4ccc([S+](C)[O-])cc4C)n3C)ccc2c1 (stereo not given) | inhibition: 2.32

Item: `CS(=O)(=O)CCNCc1ccc(-c2ccc3ncnc(Nc4ccc(OCc5ccccc5)c(Br)c4)c3c2)o1` | inhibition: 3.94

Item: `COc1ccc(C2=C(N3CCc4ccccc43)C(=O)NC2=O)cc1` | inhibition: 4.56

Item: `Fc1ccc(-c2ncn(C3CCNCC3)c2-c2ccnc(Oc3ccc4c(c3)OCO4)n2)cc1` | inhibition: 4.09

Item: `CN(C)CCCNc1nccc(-c2c(-c3ccc(F)cc3)nn3cc(C(F)(F)F)ccc23)n1` | inhibition: 3.28

Item: `C[C@@H](Oc1cc(-n2cnc3ccc(OCC4CCN(C)CC4)cc32)sc1C(N)=O)c1ccccc1Cl` | inhibition: 4.18

Item: `NS(=O)(=O)c1ccc(Nc2cc(-c3ccc(O)c(F)c3)n[nH]2)cc1` | inhibition: 1.52

Item: `FC(F)(F)c1cccc(Nc2nccc(-c3cnn4nc(-c5ccccc5)ccc34)n2)c1` | inhibition: 1.86

Item: `CCN(CC)Cc1ccc(Nc2nccc(-c3cnn4ncccc34)n2)cc1` | inhibition: 8.65

Item: `NC(=O)c1ccc(Oc2nccc(-c3c(-c4ccc(F)cc4)ncn3C3CCNCC3)n2)cc1` | inhibition: 2.63

Item: `Cc1ccc(C(=O)NC2CCC2)cc1-c1ccc(C(=O)NCC2CC2)cc1` | inhibition: 0.6

Item: `CN(C)CCOc1ccc(-c2cc(-c3ccc4c(c3)CCC4=NO)c(-c3ccncc3)o2)cc1` | inhibition: 4.54

Item: `CN(C)c1ccc2c(c1)/C(=C/Nc1ccc(S(N)(=O)=O)cc1)C(=O)N2` | inhibition: 4

Item: `NC(=O)c1cc(-c2ccncc2)cc(-c2ccccc2)c1N` | inhibition: 9.54

Item: `COc1cc(Nc2ncc(-c3ccccc3)o2)cc(OC)c1OC` | inhibition: 11.2

Item: `c1ccc(-c2n[nH]cc2-c2ccnc(-c3ccc(OCCN4CCOCC4)cc3)c2)nc1` | inhibition: 11.9

Item: `COc1cc(Nc2ncc3c(C)nc(-c4cccc(C(F)(F)F)c4)n3n2)cc(OC)c1OC` | inhibition: 4.02

Item: `C/C(Nc1ccc(S(N)(=O)=O)cc1)=C1/C(=O)Nc2ccccc21` | inhibition: 2.51

Item: `O=C(Nc1ccc(Oc2ccc3[nH]c(NC(=O)c4ccccc4)nc3c2)cc1)Nc1cc(C(F)(F)F)ccc1F` | inhibition: 38.4

Item: `Fc1ccc(-c2ncn(C3CCNCC3)c2-c2ccnc(Oc3ccc(Oc4ccccc4)cc3)n2)cc1` | inhibition: 1.63

Item: `CCC(=O)Nc1ccc(C)c(-c2ccc(C(=O)NCC3CC3)cc2)c1` | inhibition: 3.29

Item: `O=C1NC(=O)C(c2cccc(Cl)c2)=C1Nc1ccc(Cl)c(C(=O)O)c1` | inhibition: 2.43

Item: `COc1cc2ncn(-c3cc(OCc4cccs4)c(C(N)=O)s3)c2cc1OC` | inhibition: 8.78

Item: `COc1cc(Nc2ncc3c(C)nc(-c4cccc(Oc5ccccc5)c4)n3n2)cc(OC)c1OC` | inhibition: 3.94

Item: `Fc1ccc(-c2nc3n(c2-c2ccncc2)CCS3)cc1` | inhibition: 2.91

Item: `Fc1ccc(-c2c(-c3ccncc3)nc3n2CCS3)cc1` | inhibition: 1.69

Item: `COc1ccc2ncn(-c3cc(O[C@H](C)c4ccccc4Cl)c(C(N)=O)s3)c2c1` | inhibition: 2.81

Item: `NCc1ccc(-n2c(-c3nonc3N)nc3cnccc32)cc1` | inhibition: 4.57

Item: `CN(c1ccc(NC(=O)Nc2c(Cl)cccc2Cl)cc1)c1ccnc(Nc2cccc(CS(C)(=O)=O)c2)n1` | inhibition: 39.3

Item: `CS(=O)(=O)CCNCc1cc(-c2cc3c(Nc4ccc(OCc5cccc(F)c5)c(Cl)c4)ncnc3s2)cs1` | inhibition: 4.77

Item: `c1ccc(Oc2ccc(Nc3ncc(-c4ccccc4)o3)cc2)cc1` | inhibition: 1.3

Item: `Cc1nnc(-c2ccc(C)c(-c3ccc(C(=O)NCc4ccc(Cl)cc4)cc3)c2)o1` | inhibition: 2.54

Item: `O=C1Nc2ccccc2/C1=C/Nc1ccc(-n2cncn2)cc1` | inhibition: 3.88

Item: `O=C(Nc1n[nH]c2cc(-c3cc(F)ccc3F)ccc12)C1CC1` | inhibition: 8.73

Item: `NS(=O)(=O)c1ccc(N/N=C2\C(=O)Nc3ccc(-c4cnco4)cc32)cc1` | inhibition: 3.05

Item: `O=C(Nc1n[nH]c2cc(-c3ccccc3)ccc12)C1CC1` | inhibition: 14

Item: `COc1ccc2cc(-c3c(-c4ccncc4)nc(-c4ccc(S(C)(=O)=O)cc4C)n3C)ccc2c1` | inhibition: 6.25

Item: `CNC(=O)c1cncc(/C=C/c2c(C)cccc2C)c1` | inhibition: 14.5

Item: `CN1CCN(CCCNc2nc3ccc(Oc4ccc(NC(=O)Nc5cc(C(F)(F)F)ccc5F)cc4)cc3[nH]2)CC1` | inhibition: 12.8

Item: `O=C(Nc1n[nH]c2nc(-c3ccco3)ccc12)C1CC1` | inhibition: 4.58
